# system_name: Acetylcholinesterase (Homo sapiens, UniProt P22303)
# Sequence (P22303 whole entry): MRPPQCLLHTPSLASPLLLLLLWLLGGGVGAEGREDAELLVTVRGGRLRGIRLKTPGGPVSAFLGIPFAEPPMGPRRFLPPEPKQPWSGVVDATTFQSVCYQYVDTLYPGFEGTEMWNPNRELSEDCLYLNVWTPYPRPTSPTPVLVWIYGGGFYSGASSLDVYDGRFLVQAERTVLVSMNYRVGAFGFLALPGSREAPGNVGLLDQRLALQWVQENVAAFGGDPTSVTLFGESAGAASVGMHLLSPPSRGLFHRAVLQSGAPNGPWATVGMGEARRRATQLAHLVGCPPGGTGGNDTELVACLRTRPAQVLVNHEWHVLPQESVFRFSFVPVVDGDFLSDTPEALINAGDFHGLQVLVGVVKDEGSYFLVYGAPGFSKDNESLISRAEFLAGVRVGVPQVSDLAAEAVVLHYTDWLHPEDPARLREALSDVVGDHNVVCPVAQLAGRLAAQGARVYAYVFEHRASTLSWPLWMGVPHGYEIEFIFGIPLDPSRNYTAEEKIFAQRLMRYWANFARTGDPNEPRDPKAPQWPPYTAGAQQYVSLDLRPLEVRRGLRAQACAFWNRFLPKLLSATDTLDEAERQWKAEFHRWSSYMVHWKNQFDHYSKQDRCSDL
Let's look at some molecules and their measured IC50.
# number only, unit µM dropped from output

Here are 4 molecules together with their reported answers.
Query: Which IC50 is reported for this molecule? O=C(/C=C/c1ccc(Cl)cc1)NCCC1CCN(Cc2ccccc2)CC1
Reply: 0.362

Query: Then what about the molecule COc1cccc(/C=C/C(=O)NCCC2CCN(Cc3ccccc3)CC2)c1 ?
Reply: 0.69

Query: Cool, now O=C(/C=C/c1ccccc1O)NCCC1CCN(Cc2ccccc2)CC1
Reply: 2.68

Query: Would you mind doing COc1cc(/C=C/C(=O)NCCC2CCN(Cc3ccccc3)CC2)ccc1O as well?
Reply: 0.729

For the next question, use this molecule.
Query: Recorded IC50 for O=C(/C=C/c1ccc([N+](=O)[O-])cc1)NCCC1CCN(Cc2ccccc2)CC1 , please?
Reply: 0.337

====

# system_name: Cholinesterase (Equus caballus)
# Sequence (P81908 whole entry): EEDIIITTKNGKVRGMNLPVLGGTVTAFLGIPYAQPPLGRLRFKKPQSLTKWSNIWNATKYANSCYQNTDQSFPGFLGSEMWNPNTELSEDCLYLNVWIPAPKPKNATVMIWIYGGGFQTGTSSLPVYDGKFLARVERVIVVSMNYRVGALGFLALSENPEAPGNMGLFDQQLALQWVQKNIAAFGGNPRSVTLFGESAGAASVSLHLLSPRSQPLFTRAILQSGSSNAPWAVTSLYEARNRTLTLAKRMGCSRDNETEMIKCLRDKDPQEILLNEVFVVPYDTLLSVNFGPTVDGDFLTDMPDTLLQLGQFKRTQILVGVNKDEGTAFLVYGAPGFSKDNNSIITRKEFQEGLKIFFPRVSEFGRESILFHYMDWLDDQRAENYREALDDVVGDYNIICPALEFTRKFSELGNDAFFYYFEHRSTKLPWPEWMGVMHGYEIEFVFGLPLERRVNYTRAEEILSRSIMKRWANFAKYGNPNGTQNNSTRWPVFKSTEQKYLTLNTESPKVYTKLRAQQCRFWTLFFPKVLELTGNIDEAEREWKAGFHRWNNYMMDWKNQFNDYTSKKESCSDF
# experimental_details: Inhibition of equine serum butyrylcholinesterase preincubated for 5 mins followed by addition of S-butyrylthiocholine iodide as substrate measured after 60 to 120 mins by Ellmans method
pIC50: −log10 of the molar value.
Binary call on pIC50: 1 from 5 upward, -1 beneath that.

The following molecules have reported results that may help.
Query: Evaluate O=C(/C=C/c1ccc(O)cc1)NCCC1CCN(Cc2ccccc2)CC1 : pIC50 at minimum 5?
Reply: 1

Query: Also O=C(/C=C/c1ccc(Cl)cc1)NCCC1CCN(Cc2ccccc2)CC1 , if possible.
Reply: 1

Query: // repeat for COc1cc(/C=C/C(=O)NC2CCN(Cc3ccccc3)CC2)ccc1O and report
Reply: -1

Query: Item: COc1cc(/C=C/C(=O)NCCC2CCN(Cc3ccccc3)CC2)cc(OC)c1O
Reply: 1

# next molecule below
Query: Threshold query (pIC50 >= 5) on COc1cc(/C=C/C(=O)NC2CCN(Cc3ccccc3)CC2)ccc1OC(C)=O
Reply: -1

====

Collected IC50 values appear next to each entry.
# system_name: Acetylcholinesterase (Electrophorus electricus, UniProt O42275)
# Sequence (O42275 whole entry): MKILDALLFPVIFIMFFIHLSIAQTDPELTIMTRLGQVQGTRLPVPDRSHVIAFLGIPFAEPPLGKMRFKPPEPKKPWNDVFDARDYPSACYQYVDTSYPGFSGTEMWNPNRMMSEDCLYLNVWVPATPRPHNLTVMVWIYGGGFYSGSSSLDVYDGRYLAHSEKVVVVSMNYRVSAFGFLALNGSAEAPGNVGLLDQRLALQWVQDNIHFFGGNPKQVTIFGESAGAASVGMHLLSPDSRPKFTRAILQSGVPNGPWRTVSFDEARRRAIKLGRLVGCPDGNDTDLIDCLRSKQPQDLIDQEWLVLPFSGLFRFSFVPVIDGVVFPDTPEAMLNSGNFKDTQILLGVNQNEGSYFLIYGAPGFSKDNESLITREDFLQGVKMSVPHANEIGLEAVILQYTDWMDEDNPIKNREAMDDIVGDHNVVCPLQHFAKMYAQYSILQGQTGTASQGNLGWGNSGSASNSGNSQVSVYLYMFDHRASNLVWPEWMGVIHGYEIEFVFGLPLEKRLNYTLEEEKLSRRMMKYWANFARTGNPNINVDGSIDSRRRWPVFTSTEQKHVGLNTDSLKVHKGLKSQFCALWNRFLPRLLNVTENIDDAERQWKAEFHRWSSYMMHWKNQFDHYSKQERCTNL
Supply the numeric figure in µM, leaving out any unit text.

Query: So what's the measured IC50 for this one? O=C(/C=C/c1ccc([N+](=O)[O-])cc1)NC1CCN(Cc2ccccc2)CC1
Reply: 7.12

Next:
Query: Reported IC50, molecule COc1cc(/C=C/C(=O)NC2CCN(Cc3ccccc3)CC2)ccc1O : ____
Reply: 29.3

Query: Same for O=C(/C=C/c1ccc(F)cc1)NCCC1CCN(Cc2ccccc2)CC1
Reply: 0.815

Query: For COc1ccc(/C=C/C(=O)NCCC2CCN(Cc3ccccc3)CC2)cc1OC then?
Reply: 0.285

Query: What do we get for COc1cc(/C=C/C(=O)CC(=O)NC2CCN(Cc3ccccc3)CC2)ccc1O ?
Reply: 26.3

Query: Same lookup for O=C(/C=C/c1ccc([N+](=O)[O-])cc1)NCCC1CCN(Cc2ccccc2)CC1 , please.
Reply: 0.444

Query: Okay, and COc1cc(/C=C/C(=O)NCCC2CCN(Cc3ccccc3)CC2)cc(OC)c1O ?
Reply: 0.398

Query: Same read-out for COc1cc(CCC(=O)NCCC2CCN(Cc3ccccc3)CC2)ccc1O ?
Reply: 7.48

Query: And for O=C(/C=C/c1ccc(O)cc1)CC(=O)NC1CCN(Cc2ccccc2)CC1 ?
Reply: 58.3

Query: Entry COc1cccc(/C=C/C(=O)NCCC2CCN(Cc3ccccc3)CC2)c1 please
Reply: 0.383

Query: Try O=C(/C=C/c1ccc(O)cc1)NCCC1CCN(Cc2ccccc2)CC1 next.
Reply: 0.874

Query: Similarly, COc1cc(/C=C/C(=O)NC2CCN(Cc3ccccc3)CC2)ccc1OC(C)=O ?
Reply: 22

Query: Moving on to O=C(/C=C/c1ccc(Cl)cc1)NCCC1CCN(Cc2ccccc2)CC1
Reply: 0.521

Query: Here is the next molecule: O=C(/C=C/c1ccc(F)cc1)NC1CCN(Cc2ccccc2)CC1
Reply: 59.3
